Target: ZAP70 (human) (UniProt P43403)
Sequence (P43403 whole entry, looked up): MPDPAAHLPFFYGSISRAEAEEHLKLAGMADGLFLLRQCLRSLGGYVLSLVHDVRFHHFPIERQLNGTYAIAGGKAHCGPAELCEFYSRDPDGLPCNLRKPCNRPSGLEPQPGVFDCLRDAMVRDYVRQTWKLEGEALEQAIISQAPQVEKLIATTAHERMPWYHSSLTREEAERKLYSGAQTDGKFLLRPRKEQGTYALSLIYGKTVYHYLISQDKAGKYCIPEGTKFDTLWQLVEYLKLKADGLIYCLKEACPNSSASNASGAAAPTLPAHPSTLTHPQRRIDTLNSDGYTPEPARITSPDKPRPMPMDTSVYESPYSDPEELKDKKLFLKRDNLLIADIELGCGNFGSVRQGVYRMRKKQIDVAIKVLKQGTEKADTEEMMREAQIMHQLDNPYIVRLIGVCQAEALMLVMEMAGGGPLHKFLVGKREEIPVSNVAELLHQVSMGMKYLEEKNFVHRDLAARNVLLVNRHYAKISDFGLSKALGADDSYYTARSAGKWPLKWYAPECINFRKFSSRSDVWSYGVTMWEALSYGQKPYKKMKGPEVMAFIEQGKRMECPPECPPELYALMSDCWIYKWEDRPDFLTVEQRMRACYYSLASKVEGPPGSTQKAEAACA
Assay: radiometric filter-binding kinase assay
Conditions: compound 0.1 µM
Assign residual activity to each entry below.
Value expressed in %; do not type the unit.

Request: Return reported residual activity; argument: COc1cc(O)c2c(c1)/C=C/C[C@H](O)[C@H](O)C(=O)/C=C\C[C@H](C)OC2=O
Response: 110

Request: Another molecule: Cc1cc(NC(=O)c2cccc(NC(=O)/C=C/CN(C)C)c2)ccc1Nc1nccc(-c2cccnc2)n1
Response: 105

Request: Another molecule: COc1cc(O)c2c(c1)[C@H]1OC1C[C@H](O)[C@H](O)C(=O)/C=C\C[C@H](C)OC2=O (some centres not stated)
Response: 101

Request: Another molecule: O=C(Nc1nc2cc(C(F)(F)F)cc(NC3CC3)n2n1)c1cccnc1
Response: 77

Request: Another molecule: CN(C)C/C=C/C(=O)Nc1cccc(C(=O)Nc2ccc(Nc3nccc(-c4cccnc4)n3)cc2)c1
Response: 82

Request: Another molecule: COc1ccc(N(C(=O)Nc2c(C)cccc2C)c2cc(Nc3ccc(N4CCN(C)CC4)cc3)ncn2)c(OC)c1
Response: 98

Request: Another molecule: NC(=O)c1cc(-c2ccnc(NC3CCCCC3)c2)nc(N2CCNCC2)c1
Response: 108

Request: Another molecule: COc1ccc(-n2ncc3cnc(Nc4cc(OC)c(OC)c(OCCCN5CCN(C)CC5)c4)nc32)cc1
Response: 54

Request: Another molecule: CCCCCc1ccc(/C=C/[C@H](O)[C@@H](CO)NC)cc1
Response: 116

Request: Another molecule: Cc1ccc(-c2ccc3c(ccc4sc5c(c43)NC[C@@H](C)NC5=O)n2)cn1
Response: 93

Request: Another molecule: c1ccc2c(-c3cnn4cc(-c5ccc(N6CCNCC6)cc5)cnc34)ccnc2c1
Response: 86

Request: Another molecule: O=C(N[C@@H](COc1ccc2[nH]c(=O)[nH]c2c1)c1ccccc1)c1cccn(Cc2ccc(F)c(F)c2)c1=O
Response: 102

Request: Another molecule: O=C(NCCCNc1nc(Nc2cccc(CN3CCOCC3)c2)ncc1C1CC1)C1CCC1
Response: 92

Request: Another molecule: C=CC(=O)N1CCC[C@@H](n2nc(-c3ccc(Oc4ccccc4)cc3)c3c(N)ncnc32)C1
Response: 93

Request: Another molecule: CCn1c(-c2nonc2N)nc2cncc(CNC3CCNCC3)c21
Response: 83

Request: Another molecule: CNC(=O)C1[C@H]2O[C@@](C)([C@@H]1N)n1c3ccccc3c3c4c(c5c6ccccc6n2c5c31)C(=O)NC4 (some centres not stated)
Response: 16

Request: Another molecule: CN1CCN(CCOc2cc(OC3CCOCC3)c3c(Nc4c(Cl)ccc5c4OCO5)ncnc3c2)CC1
Response: 122

Value source: the kinase profiling compilation of Christmann-Franck et al. (2016)
